Data provenance is patent US20190375839A1.

molecular target: T1, human TIM-3 full length, overexpressed on CHO-S cells (human, UniProt Q8TDQ0 22-301); test: cell-based ELISA on fixed CHO-S cells overexpressing human TIM-3;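 note: antibody binding at serial dilutions to PFA-fixed cells for 1 h at 37 °C, read as TMB colour signal after acid stop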
T1 construct: cells fixed with 4% PFA on plates; also called HAVCR2; Tim-3-overexpressing CHO-S cells
reported-metric: pEC50
Numbers only, as −log10 of the molar value.

Worked cases, pEC50 given:
>  <binder>
h1799-018 (antibody, human IgG4 S228P, kappa, V domains shown, Humanized IgG4 (S228P)/kappa) VH: EVKLVESGGGLVQPGGSLRLSCAASGFTFSDYYMAWVRQAPGKGLEWVANINYDGSSTYYLDSLKSRFTISRDNAKNSLYLQMNSLKAEDTAVYYCARDVGYYGGNYGFAYWGQGTLVTVSS VL: DIQMTQSPSSLSASVGDRVTITCRASDNIYSYLAWYQQKPGKSPQLLVYNAKTLAEGVPSRFSGSGSGTDFTLTISSLQPEDFATYYCQQHYGSPLTFGQGTKLEIKR

>  <reported-metric>
pEC50

>  <measurement>
9.67

$$$$
>  <binder>
h1701-012 (antibody, human IgG4 S228P, kappa, V domains shown, Humanized IgG4 (S228P)/kappa) VH: QVQLVQSGAEVKKPGASVKVSCKASGYTFTDYYMNWVRQAPGQGLEWIGDIIPNNGGSKYNQKFKDRVTMTTDTSTSTAYMELRSLRSDDTAVYYCATWGYGSSYRWFDYWGQGTLVTVSS VL: DIQMTQSPSSLSASVGDRVTITCLASQPIGIWLAWYQQKPGKSPKLLIYAATSLADGVPSRFSGSGSGTDFTFTISSLQPEDIATYYCQQLYSSPWTFGGGTKVEIKR

>  <reported-metric>
pEC50

>  <measurement>
9.66

$$$$
>  <binder>
h1701-018 (antibody, human IgG4 S228P, kappa, V domains shown, Humanized IgG4 (S228P)/kappa) VH: QVQLVQSGAEVKKPGASVKVSCKASGYTFTDYYMNWVKQAPGQGLEWIADIIPNNGGSKYNQKFKDRATLTTDTSTSTAYMELRSLRSEDTAVYYCATWGYGSSYRWFDYWGQGTLVTVSS VL: DIQMTQSPSSLSASVGDRVTITCLASQPIGIWLAWYQQKPGKSPKLLIYAATSLADGVPSRFSGSGSGTDFTFTISSLQPEDIATYYCQQLYSSPWTFGGGTKVEIKR

>  <reported-metric>
pEC50

>  <measurement>
10.06

$$$$

I would be grateful if you could provide pEC50 for each of the following entries.
1. h1701-016 (antibody, human IgG4 S228P, kappa, V domains shown, Humanized IgG4 (S228P)/kappa) VH: QVQLVQSGAEVKKPGASVKVSCKASGYTFTDYYMNWVRQAPGQGLEWIADIIPNNGGSKYNQKFKDRATLTTDTSTSTAYMELRSLRSDDTAVYYCATWGYGSSYRWFDYWGQGTLVTVSS VL: DIQMTQSPSSLSASVGDRVTITCLASQPIGIWLAWYQQKPGKSPKLLIYAATSLADGVPSRFSGSGSGTDFTFTISSLQPEDIATYYCQQLYSSPWTFGGGTKVEIKR
2. h1701-017 (antibody, human IgG4 S228P, kappa, V domains shown, Humanized IgG4 (S228P)/kappa) VH: QVQLVQSGAEVKKPGASVKVSCKASGYTFTDYYMNWVKQAPGQGLEWIADIIPNNGGSKYNQKFKDRATLTTDTSTSTAYMELRSLRSEDTAVYYCATWGYGSSYRWFDYWGQGTLVTVSS VL: DIQMTQSPSSLSASVGDRVTITCLASQPIGIWLAWYQQKPGKAPKLLIYAATSLADGVPSRFSGSGSGTDFTFTISSLQPEDIATYYCQQLYSSPWTFGGGTKVEIKR

[10.24, 9.98]
